Origin of values: patent US20170050957A1

Exercise: state measured pest or weed control at 70 g/ha for each of the compounds provided.
# System: Key Broadleaf Weed and Crop Species
# Protocol Details: Post-emergent Test II herbicidal activity (Table 15)
# Type: in vivo
# Particulars: Brassica napus, post-emergence, 336 h, oilseed rape, canola (Brassica napus), 70 g ai/ha, 14 d, read-out: Visual Growth Reduction (%) 14 Days After Application, BRSNN

Query for Key Broadleaf Weed and Crop Species: what pest or weed control at 70 g/ha does the record show for COC(=O)c1nc(-c2ccc3cc[nH]c3c2)c(Cl)c(N)c1Cl ?
45 to 59%

Here is the next compound: COc1c(N)nc(-c2ccc3ccsc3c2)nc1C(=O)O
85 to 94%

Here is the next compound: COc1c(N)nc(-c2ccc3sccc3c2)nc1C(=O)O
85 to 94%

Here is the next compound: COC(=O)c1nc(-c2ccc3cc[nH]c3c2F)c(Cl)c(N)c1Cl
0 to 29%

Here is the next compound: COC(=O)c1nc(-c2ccc3cn[nH]c3c2)c(F)c(N)c1Cl
0 to 29%

Here is the next compound: COC(=O)c1nc(-c2ccc3ccsc3c2)cc(N)c1Cl
45 to 59%

Here is the next compound: C=Cc1c(N)nc(-c2ccc3cc[nH]c3c2F)nc1C(=O)O
85 to 94%

Here is the next compound: Cn1ccc2cc(-c3nc(C(=O)O)c(Cl)c(N)c3F)ccc21
0 to 29%

Here is the next compound: COC(=O)c1nc(-c2c(F)cc3cc[nH]c3c2F)cc(N)c1Cl
95 to 100%

Here is the next compound: Nc1cc(-c2cc3[nH]ccc3cc2F)nc(C(=O)O)c1Cl
95 to 100%

Here is the next compound: Cc1c(-c2ccc3cc[nH]c3c2)nc(C(=O)O)c(Cl)c1N
75 to 84%

Here is the next compound: COC(=O)c1nc(-c2ccc3occc3c2)cc(N)c1Cl
0 to 29%

Here is the next compound: Nc1c(F)c(-c2ccc(Cl)c3occc23)nc(C(=O)O)c1Cl
60 to 74%

Here is the next compound: COC(=O)c1nc(-c2cc3occc3cc2F)nc(N)c1OC
95 to 100%

Here is the next compound: Nc1cc(-c2ccc3cc[nH]c3c2F)nc(C(=O)O)c1Cl
45 to 59%

Here is the next compound: COC(=O)c1nc(-c2cccc3cn[nH]c23)c(F)c(N)c1Cl
0 to 29%

Here is the next compound: COC(=O)c1nc(-c2ccc3c(N(C)C)noc3c2)c(F)c(N)c1Cl
0 to 29%

Here is the next compound: COC(=O)c1nc(-c2ccc(Cl)c3occc23)nc(N)c1OC
30 to 44%

Here is the next compound: COC(=O)c1nc(-c2ccc3sccc3c2)c(C)c(N)c1Cl
30 to 44%

Here is the next compound: COC(=O)c1nc(-c2ccc3sccc3c2)nc(N)c1OC
0 to 29%

Here is the next compound: COC(=O)c1nc(-c2ccc3cc[nH]c3c2)c(F)c(N)c1Cl
75 to 84%

Here is the next compound: COC(=O)c1nc(-c2ccc(Cl)c3[nH]ccc23)nc(N)c1OC
0 to 29%

Here is the next compound: Nc1cc(-c2ccc3cc[nH]c3c2)nc(C(=O)O)c1Cl
60 to 74%

Here is the next compound: COC(=O)c1nc(-c2ccc3ccoc3c2F)cc(N)c1Cl
85 to 94%

Here is the next compound: COC(=O)c1nc(-c2ccc3ccsc3c2)c(F)c(N)c1Cl
0 to 29%

Here is the next compound: COC(=O)c1nc(-c2ccc3ccoc3c2F)nc(N)c1OC
95 to 100%

Here is the next compound: COC(=O)c1nc(-c2cccc3cc[nH]c23)c(F)c(N)c1Cl
0 to 29%

Here is the next compound: COC(=O)c1nc(-c2cccc3ccsc23)cc(N)c1Cl
60 to 74%

Here is the next compound: Nc1nc(-c2ccc(Cl)c3occc23)nc(C(=O)O)c1Cl
0 to 29%

Here is the next compound: COC(=O)c1nc(-c2ccc3cc[nH]c3c2F)cc(N)c1Cl
75 to 84%

Here is the next compound: COC(=O)c1nc(-c2cc3sccc3cc2F)nc(N)c1OC
30 to 44%
